measuredTarget: T1, Recombinant CSP (Wellcome Trust Sanger Institute, FIG. 22), CSP ectodomain with BirA biotinylation tag, … (Plasmodium falciparum strain 3D7, UniProt Q7K740 19-376, biotinylated at the BirA substrate peptide)
T1 construct: extracellular domain; Expressed in HEK293, 45 kDa; order of the tags is that of the legend, not confirmed; also called biotinylated recombinant CSP
assayText: SPR (ProteOn), biotinylated CSP on NLC chip, Fab as analyte, 25 C, 1:1 fit
Measured koff, listed per entry.
Supply the numeric figure in s⁻¹, leaving out any unit text.

>  <binder>
Antibody 668 Fab (Fab, V domains shown, recombinant human Fab from CHO-3E7 cells, purified on nickel columns) VH: QVQLVQSGAEVKKPGASVKVSCKASGFTFTDYAMHWVRQAPGQRLEWMGWINAGNGYTKYSQKFQDRLTITRDTFASTVYMELSSLRSEDTTVYYCARDGFCPSNTCSGYYGMDVWGQGTTVTVSS VL: QSALTQPASVSGSPGQSITISCTGTSSDVGSYNYVSWYQQHPGKAPKLMIYDVNTRPSGVSIRFSASKSGNTASLTVSGLQAEDEAVYYCSSYAGSSTWVFGGGTKLTVL

>  <koff, s⁻¹>
0.000473

$$$$
>  <binder>
Antibody 666 Fab (Fab, V domains shown, recombinant human Fab from CHO-3E7 cells, purified on nickel columns) VH: QVQLVQSGAEVKKPGASVKVSCKASGYTFTNYAMHWVRQAPGQRLEWMGWINAGNGNTKYSQNFQGRVTITRDTSASTAYMELSSLRSEDTAVYYCARDEYYASGSYYDYYYYGMDVWGQGTTVTVTS VL: QSALTQPASVSGSPGQSITISCTGTSSDVGVYNYVSWFQQHPGKAPKLMIYNVSKRPSGVSNRFSGSKSGNTASLTISGLQAEDEADYYCCSYAGSSTWVFGGGTNLTVL

>  <koff, s⁻¹>
0.00249

$$$$

# koff (binder: Antibody 669 Fab (Fab, V domains shown, recombinant human Fab from CHO-3E7 cells, purified on nickel columns) VH: QVQLVQSGAEVKKPGASVRVSCKASGFTFTSYAMHWVRQAPGQRLEWMGWINAGNGHTKYSQKFQDRVAITRDTSATTVYMDLSSLRSEDTAVYYCTRDGFCTSTTCSDHYGMDVWGQGTTVTVSS VL: QSALTQPASVSGSPGQSITISCTGTSSDVGSYNYVSWYQQHPGKAPKFMIYDVSKRPSGVSNRFSGSKSGNTASLTISGLQAEDEADYYCCSYAGSSTWVFGGGTKLTVL ) is 0.00211

# koff (binder: Antibody 667 Fab (Fab, V domains shown, recombinant human Fab from CHO-3E7 cells, purified on nickel columns) VH: QVQLVQSGAEVKKPGASVKVSCRASGYTFTNYAMHWVRQAPGQRLEWMGWINAGNGYTKYSQKFQDRVTITRDTSATTAYMELSSLRSEDTAMYYCARDSFYDILSGPVYHYYGMDVWGQGTTVTVSS VL: QSALTQPDSVSGSPGQSITISCTGTSNDVGIYNHVSWYQQHPGKAPKLMIYDVNKRPSGISNRFSGSKSGDTASLTISGLQAEDEADYYCCSYAGSSAWVFGGGTKLTVL ) is 0.00079
